- Test System: AgIR41c (Anopheles coluzzii, UniProt A0A6E8W7H2)
- Construct: with AgIr25a and AgIr76b (co-receptors)
- Sequence (A0A6E8W7H2 1-669): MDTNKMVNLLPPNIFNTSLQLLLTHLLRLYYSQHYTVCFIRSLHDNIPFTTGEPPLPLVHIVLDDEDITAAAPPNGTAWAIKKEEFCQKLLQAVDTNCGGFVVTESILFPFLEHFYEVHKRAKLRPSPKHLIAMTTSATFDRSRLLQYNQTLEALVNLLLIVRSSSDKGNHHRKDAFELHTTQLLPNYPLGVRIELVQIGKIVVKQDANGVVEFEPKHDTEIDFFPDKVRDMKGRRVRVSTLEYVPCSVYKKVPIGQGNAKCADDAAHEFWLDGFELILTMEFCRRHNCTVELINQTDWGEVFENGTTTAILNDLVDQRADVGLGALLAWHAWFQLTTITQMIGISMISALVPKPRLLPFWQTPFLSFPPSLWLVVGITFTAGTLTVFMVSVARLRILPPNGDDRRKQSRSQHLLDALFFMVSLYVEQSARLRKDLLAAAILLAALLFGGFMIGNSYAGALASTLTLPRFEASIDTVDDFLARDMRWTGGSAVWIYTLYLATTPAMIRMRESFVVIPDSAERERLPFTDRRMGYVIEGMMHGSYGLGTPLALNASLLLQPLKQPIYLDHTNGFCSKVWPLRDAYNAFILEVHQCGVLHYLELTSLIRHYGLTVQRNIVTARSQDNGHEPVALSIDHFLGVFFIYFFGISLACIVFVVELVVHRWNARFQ
- Sequence (A0A1S4H3H9 28-946 partner): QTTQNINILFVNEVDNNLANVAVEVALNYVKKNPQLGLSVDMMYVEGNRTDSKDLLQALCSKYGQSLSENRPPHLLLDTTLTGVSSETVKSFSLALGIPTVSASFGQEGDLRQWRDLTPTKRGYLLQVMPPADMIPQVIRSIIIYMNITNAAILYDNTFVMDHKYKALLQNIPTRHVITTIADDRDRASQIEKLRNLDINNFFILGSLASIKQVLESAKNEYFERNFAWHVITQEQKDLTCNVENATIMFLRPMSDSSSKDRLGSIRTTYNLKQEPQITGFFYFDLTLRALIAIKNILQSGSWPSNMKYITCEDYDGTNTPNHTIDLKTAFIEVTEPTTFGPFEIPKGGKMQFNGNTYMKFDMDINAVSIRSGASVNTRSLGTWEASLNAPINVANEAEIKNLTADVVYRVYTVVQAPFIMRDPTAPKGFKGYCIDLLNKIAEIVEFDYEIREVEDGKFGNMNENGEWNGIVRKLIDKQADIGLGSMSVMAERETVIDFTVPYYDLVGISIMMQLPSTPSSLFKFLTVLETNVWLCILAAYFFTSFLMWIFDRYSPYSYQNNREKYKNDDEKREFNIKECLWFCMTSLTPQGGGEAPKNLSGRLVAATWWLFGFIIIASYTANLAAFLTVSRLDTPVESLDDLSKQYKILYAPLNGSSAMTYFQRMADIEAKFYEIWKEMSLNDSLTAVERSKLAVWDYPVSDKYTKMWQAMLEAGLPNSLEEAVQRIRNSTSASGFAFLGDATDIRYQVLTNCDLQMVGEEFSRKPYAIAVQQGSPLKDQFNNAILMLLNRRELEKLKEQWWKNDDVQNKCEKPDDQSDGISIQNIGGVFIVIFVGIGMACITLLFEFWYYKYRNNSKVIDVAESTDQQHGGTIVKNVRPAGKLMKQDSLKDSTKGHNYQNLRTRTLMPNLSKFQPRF
- Sequence (A0A6E8W6Y5 1-657 partner): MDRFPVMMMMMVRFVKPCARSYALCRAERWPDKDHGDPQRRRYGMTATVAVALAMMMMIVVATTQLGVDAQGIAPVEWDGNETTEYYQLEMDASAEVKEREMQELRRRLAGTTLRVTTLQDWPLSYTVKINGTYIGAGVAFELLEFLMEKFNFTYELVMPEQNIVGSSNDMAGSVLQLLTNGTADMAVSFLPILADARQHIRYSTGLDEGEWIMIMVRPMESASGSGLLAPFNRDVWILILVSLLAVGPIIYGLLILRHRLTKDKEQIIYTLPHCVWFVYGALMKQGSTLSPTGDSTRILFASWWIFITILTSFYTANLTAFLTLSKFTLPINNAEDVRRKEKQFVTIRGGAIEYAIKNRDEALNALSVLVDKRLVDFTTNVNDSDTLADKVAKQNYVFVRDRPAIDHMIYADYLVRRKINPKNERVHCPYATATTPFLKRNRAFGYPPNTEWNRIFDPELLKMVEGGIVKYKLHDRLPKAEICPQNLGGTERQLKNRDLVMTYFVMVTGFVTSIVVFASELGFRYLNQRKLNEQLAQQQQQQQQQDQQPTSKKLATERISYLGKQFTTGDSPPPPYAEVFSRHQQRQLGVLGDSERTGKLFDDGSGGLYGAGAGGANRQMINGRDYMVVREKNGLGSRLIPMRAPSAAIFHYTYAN
- Experiment: two-electrode voltage clamp, Xenopus oocytes, concentration-response
Measured Endpoint: pEC50
// returns pEC50 (minus log10 of molar concentration), number only

Enquiry: What value of measured pEC50 is listed for C1CCNC1 ?
Return: 5.47
